Experiment: Inhibition of chymotrypsin-like activity of human 20s immuno proteasome beta5i subunit assessed as substrate hydrolysis using Suc-Leu-Leu-Val-Tyr-AMC as flurogenic substrate at 0.004 mg/ml measured for 10 mins by fluorescence assay
measuredAttribute: pKi
Please treat pKi as minus the base-10 logarithm of the molar concentration.

Measured pKi of CC(C)CCNC(=O)Cn1ccc2ccc(Br)cc2c1=O : 5.36

----------
Here, each record is paired with measured Ki data.
Assay: Inhibition of 20S constitutive proteosome beta2c subunit (unknown origin) assessed as substrate hydrolysis using Boc-Leu-Arg-Arg-AMC as fluorogenic substrate at 100 uM
The answer is to be given in µM; state only the numeric part.

See these solved cases before continuing.
COc1cc2ccn(C/C=C/C(=O)NCCC(C)C)c(=O)c2cc1OC = 4
COc1cc2ccn(C/C=C/C(=O)NCCc3ccccc3)c(=O)c2cc1OC = 10
COc1cc2ccn(C/C=C/C(=O)NCc3ccccc3)c(=O)c2cc1OC = 9
COc1cc2ccn(C/C=C/C(=O)Nc3ccccc3)c(=O)c2cc1OC = 15

Sure, the documented Ki for CCCCNC(=O)/C=C/Cn1ccc2cc(OC)c(OC)cc2c1=O is 10

get_value(item= COc1cc2ccn(C/C=C/C(=O)NCCCc3ccccc3)c(=O)c2cc1OC , readout=Ki) returns 5
